Recorded T/C by entry
Test system: L1210 leukemia ip in BDF1 mice, survival T/C
Method Notes: NCI In Vivo Anticancer Drug Screen. Data for tumor model L1210 Leukemia (intraperitoneal) in B6D2F1 (BDF1) mice
Condition Details: endpoint: mean survival time; dose: 200.0 mg/kg/injection; schedule: Q04DX003 (ip); vehicle: saline with Tween-80; higher = longer survival
Toxic doses and inconclusive results are not listed.

• CC(C)=CCC/C(C)=C/CN1C(=O)CC(C)=C(C)C1=O = 104 % of control
• S=C(S)N1CCC(CCCC2CCN(C(=S)S)CC2)CC1 = 89 % of control
• Nc1ccc(S(=O)(=O)c2ccc(NCC(=O)O)cc2)cc1 = 92 % of control
• COC(=O)CSC(=S)N(C)C = 91 % of control
• COc1cc(CCCc2ccc(O)c(=O)cc2)cc(OC)c1OC = 94 % of control

Challenge: State its T/C for this compound: COC(=O)C1=C(C)NC(=O)NC1c1ccccc1 (centres undefined)
Response given: 97 % of control

Challenge: State its T/C for this compound: Cn1nnnc1/C(=C/c1ccccc1)C(=O)O
Response given: 95 % of control

Challenge: State its T/C for this compound: Cc1cc(S(N)(=O)=O)ccc1Cl
Response given: 93 % of control

Challenge: State its T/C for this compound: CC(=O)Nc1ccc(N=Cc2ccc([N+](=O)[O-])s2)cc1
Response given: 96 % of control

Challenge: State its T/C for this compound: O=C1OC(=O)c2c1ccc1ccc(Cl)cc21
Response given: 94 % of control

Challenge: State its T/C for this compound: CCOC(=O)C1C(=O)C(C(=O)Nc2ccccc2)C(=O)C(C(=O)OCC)C1c1ccc(O)cc1 (centres undefined)
Response given: 97 % of control

Challenge: State its T/C for this compound: c1ccc2c(c1)NC1CCN2C1 (centres undefined)
Response given: 103 % of control

----------
System: L1210 leukemia ip in BDF1 mice, survival T/C
Method Notes: NCI In Vivo Anticancer Drug Screen. Data for tumor model L1210 Leukemia (intraperitoneal) in B6D2F1 (BDF1) mice
Condition Details: endpoint: mean survival time; dose: 400.0 mg/kg/injection; schedule: Q04DX002 (ip); vehicle: Klucel (hydroxypropylcellulose) (HPC); higher = longer survival
Toxic doses and inconclusive results are not listed.
Recorded T/C by entry

Solved cases below.
• COc1ccc(OC)c(NC(=O)Nc2cc([N+](=O)[O-])ccc2C)c1 = 100 % of control
• COc1c(C)c2c(c(O)c1C/C=C(\C)CCC(=O)O)C(=O)OC2 = 112 % of control
• O=C(Nc1ccccn1)Nc1cccc2ccccc12 = 87 % of control
• CC(C)(C)c1cc(/C=N/NC(=S)Nc2ccccc2)cc(C(C)(C)C)c1O = 92 % of control

Challenge: State its T/C for this compound: COC12C(COC(=O)NCCO)C3=C(C(=O)C(C)=C(N)C3=O)N1CC1NC12 (stereo unspecified)
Response given: 91 % of control

Challenge: State its T/C for this compound: Cc1cc(NC(=O)Nc2cccc3ccccc23)no1
Response given: 89 % of control

Challenge: State its T/C for this compound: Cc1ccc(C(=O)/C=C\c2ccc(Cl)c(Cl)c2)cc1
Response given: 95 % of control

Challenge: State its T/C for this compound: c1ccc(C2=NN(c3ccccc3)CC2)cc1
Response given: 106 % of control

Challenge: State its T/C for this compound: CCCCNC(=O)NCCN(C)c1ccccc1
Response given: 102 % of control

Challenge: State its T/C for this compound: COc1ccc(C(=O)Nc2ccc(C)c(Cl)c2)cc1
Response given: 112 % of control

Challenge: State its T/C for this compound: O=C(COc1ccc(Cl)cc1)Oc1c(Cl)c(Cl)c(Cl)c(Cl)c1Cl
Response given: 104 % of control

----------
Recorded T/C by entry
System: L1210 leukemia ip in BDF1 mice, survival T/C
Method Notes: NCI In Vivo Anticancer Drug Screen. Data for tumor model L1210 Leukemia (intraperitoneal) in B6D2F1 (BDF1) mice
Condition Details: endpoint: mean survival time; dose: 100.0 mg/kg/injection; schedule: Q04DX003 (ip); vehicle: Klucel (hydroxypropylcellulose) (HPC); higher = longer survival
Experimental: The antitumor activity of compounds was measured in mice bearing transplantable tumors. Survival or tumor size were measured and the results are expressed as the measurement made in the treated group (T) divided by the measurement made in the vehicle treated control group (C). The tumor model used in this assay is L1210 Leukemia (intraperitoneal) in B6D2F1 (BDF1) mice
Inconclusive results and toxic doses are left out.

Solved cases below.
* NC(C(=O)O)c1cccc(Cl)c1 (stereo unspecified) | 100 % of control
* CCCc1c2cc(OC)c(OC)cc2cc2c3cc(OC)c(OC)cc3cc[n+]12 (tested in a mixture with another compound) | 100 % of control
* CCOC(=O)/C=C(/C)OC(C)=O | 101 % of control

Challenge: State its T/C for this compound: CC(C)(C)CC(N)=O
Response given: 117 % of control

Challenge: State its T/C for this compound: OCCCNc1nc2ccc(Cl)cc2c2ccccc12
Response given: 116 % of control

Challenge: State its T/C for this compound: NC(CSCCc1ccc([N+](=O)[O-])cc1)C(=O)O (stereo unspecified)
Response given: 105 % of control

----------
System: L1210 leukemia ip in BDF1 mice, survival T/C
Method Notes: NCI In Vivo Anticancer Drug Screen. Data for tumor model L1210 Leukemia (intraperitoneal) in B6D2F1 (BDF1) mice
Condition Details: endpoint: mean survival time; dose: 100.0 mg/kg/injection; schedule: Q04DX003 (ip); vehicle: other; higher = longer survival
Inconclusive results and toxic doses are left out.
Recorded T/C by entry

- CC(Cc1ccc2c(c1)OCO2)C(C)Cc1ccc2c(c1)OCO2 (configuration not stated): 90 % of control

Challenge: State its T/C for this compound: C/C(=N/NC(=O)c1ccccc1)c1ccc(Cl)cc1Cl
Response given: 97 % of control

Challenge: State its T/C for this compound: COC(=O)C(Cc1c[nH]c2ccccc12)NC(=O)CNC(=O)OCc1ccccc1 (configuration not stated)
Response given: 98 % of control

Challenge: State its T/C for this compound: ClCSc1ccccc1
Response given: 100 % of control

Challenge: State its T/C for this compound: CN(C)c1ccc(/C=N/NC(=O)c2ccccc2)cc1
Response given: 94 % of control

Challenge: State its T/C for this compound: CCCOP(=S)(NCCCOC)OCCC
Response given: 95 % of control

Challenge: State its T/C for this compound: O=P1(Cc2ccccc2)CC(Br)C(Br)C1 (configuration not stated)
Response given: 101 % of control

----------
Test system: L1210 leukemia ip in BDF1 mice, survival T/C
Method Notes: NCI In Vivo Anticancer Drug Screen. Data for tumor model L1210 Leukemia (intraperitoneal) in B6D2F1 (BDF1) mice
Condition Details: endpoint: mean survival time; dose: 200.0 mg/kg/injection; schedule: Q01DX001 (ip); vehicle: saline; higher = longer survival
Toxic doses and inconclusive results are not listed.
Recorded T/C by entry

Solved cases below.
- CC(C)CCS(=O)(=O)O: 98 % of control
- CCCN(CCC)CCCCN(CCC)CCCN(CCC)CCC: 94 % of control
- CC(C)(CN)CCBr: 101 % of control
- CN(C)C1C(=O)C(C(N)=O)=C(O)C2(O)C(=O)C3=C(O)c4c(O)cccc4C(C)(O)C3CC12 (stereo not drawn): 96 % of control
- CN1C(CCl)Nc2cc(Cl)c(S(N)(=O)=O)cc2S1(=O)=O (stereo not drawn): 90 % of control

Challenge: State its T/C for this compound: COc1cc([N+](=O)[O-])c(C)cc1Br
Response given: 107 % of control

Challenge: State its T/C for this compound: C=CCOCC(C)OC(=O)C(C)C (stereo not drawn)
Response given: 94 % of control

Challenge: State its T/C for this compound: O=[N+]([O-])c1ccc(N=C(Cl)N(c2ccccc2)c2ccccc2)cc1
Response given: 109 % of control

Challenge: State its T/C for this compound: C(=N\N(CCCCN(/N=C/c1ccccc1)c1ccccc1)c1ccccc1)/c1ccccc1
Response given: 91 % of control

Challenge: State its T/C for this compound: CCSC(=O)N=Nc1ccc(O)cc1
Response given: 94 % of control

Challenge: State its T/C for this compound: COC(=O)c1cc([N+](=O)[O-])c(C)s1
Response given: 100 % of control

Challenge: State its T/C for this compound: O=c1cc(CO)oc(C(Nc2ccccc2)c2ccccc2)c1O (stereo not drawn)
Response given: 97 % of control

Challenge: State its T/C for this compound: CCOC(=O)c1cccc(N(CCO)CCO)c1
Response given: 103 % of control

----------
System: L1210 leukemia ip in BDF1 mice, survival T/C
Method Notes: NCI In Vivo Anticancer Drug Screen. Data for tumor model L1210 Leukemia (intraperitoneal) in B6D2F1 (BDF1) mice
Condition Details: endpoint: mean survival time; dose: 6.25 mg/kg/injection; schedule: Q01DX009 (ip); vehicle: saline with Tween-80; higher = longer survival
Inconclusive results and toxic doses are left out.
Recorded T/C by entry

Solved cases below.
- COc1cccc(C)c1NC1=NCCO1: 101 % of control
- O=C(O)c1cc(CBr)ccc1CBr: 100 % of control
- C=CC(OC(C)=O)OC(C)=O: 91 % of control
- Nc1nc2nc(CC(=O)C(=O)O)c(=O)[nH]c2c(=O)[nH]1: 101 % of control

Moving on to another compound below.
Challenge: State its T/C for this compound: CCCCCCCCCCCCCCCCCC[Se][Se]CCCCCCCCCCCCCCCCCC
Response given: 94 % of control
